Target: T1, human GITR (human, UniProt Q9Y5U5 26-241)
T1 construct: also called TNFRSF18; Glucocorticoid-induced TNFR-related gene
T1 sequence: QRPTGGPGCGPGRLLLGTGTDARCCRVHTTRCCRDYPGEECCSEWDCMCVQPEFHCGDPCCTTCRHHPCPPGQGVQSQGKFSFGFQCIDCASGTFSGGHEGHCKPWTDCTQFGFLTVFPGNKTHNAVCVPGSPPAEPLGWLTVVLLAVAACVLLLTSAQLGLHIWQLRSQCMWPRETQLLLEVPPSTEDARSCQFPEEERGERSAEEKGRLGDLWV
Test: flow cytometry on activated human T cells
# key: entry, value: EC50
// return numeric value only (unit: µg/mL, not printed)

Here is how some binders turned out for EC50.
33C9 (antibody, human IgG1, kappa, V domains shown, Parental fully human antibody; also called Ab2; SS-12413) VH: QVQVVESGGGVVQPGRSLRLSCAASGFTFSSYGMHWVRQAPGKGLEWVSVIWYEGSNKYYADSVKGRFTISRDNSKNTLYLQMNSLRAEDTAVYYCARGGLLGYYYYYGMDVWGQGTTVTVSS VL: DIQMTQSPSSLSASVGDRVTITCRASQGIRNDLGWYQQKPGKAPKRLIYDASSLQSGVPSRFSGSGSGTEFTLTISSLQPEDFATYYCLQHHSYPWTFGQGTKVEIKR : 0.06
9H6v6 (antibody, human IgG1, kappa, V domains shown, Engineered variant; also called Ab49; SS-16947) VH: QVQLVESGGGVVQPGRSLRLSCVASGFTFSSYGMHWIRQAPGKGLEWVAVIWYEGSNKYYADTVKGRFTISRDNSKNTLYLQMNSLRAEDTAVYYCARGGRLGKDYYSGMDVWGQGTTVTVSS VL: DIQMTQSPSSLSASVGDRVTITCRASQGIRNDLGWYQQKPGKAPKLLIYATSSLQSGVPSRFSGSGSGTEFTLTISSLQPEDFATYYCLQHNTYPWTFGQGTKVEIKR : 0.411
7A10v5 (antibody, human IgG1, kappa, V domains shown, Engineered variant; also called Ab43; SS-16941) VH: QVQLVESGGGVVQPGRSLRLSCAASGFTFSSYGMHWVRQAPGKGLEWMAVIWYVGSNKYYAESVKGRFTISRDNSKNTLYLQMNSLRAEDTAVYYCARGGELGRDYYSGMDVWGQGTTVTVSS VL: DIQMTQSPSSLSASVGDRVTITCRASQGIRNDLGWYQQKPGKAPKLLIYAASSLQSGVPSRFSGSGSGTEFTLTISSLQPEDFATYYCQQHNSYPWTFGQGTKVEIKR : 0.783
41G5 (antibody, human IgG1, kappa, V domains shown, Parental fully human antibody; also called Ab7; SS-12428) VH: QVQLVESGGGVVQPGRSLRLSCAASGFTFSSYGMHWVRQAPGKGLEWVAVIWYPGSNKYYADSVKGRFTISRDNSKNTLYLQMNSLRAEDTAVYYCARGGELGRYYYYGMDVWGQGTTVTVSS VL: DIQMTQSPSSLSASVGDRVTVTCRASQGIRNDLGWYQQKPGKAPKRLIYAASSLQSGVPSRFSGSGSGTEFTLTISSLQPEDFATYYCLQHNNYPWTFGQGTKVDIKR : 0.055
33C9v3 (antibody, human IgG1, kappa, V domains shown, Engineered variant; also called Ab52; SS-16949) VH: QVQVVESGGGVVQPGRSLRLSCAASGFTFSSYGMHWVRQAPGKGLEWVSVIWYEGSNKYYADTVKGRFTISRDNSKNTLYLQMNSLRAEDTAVYYCARGGLLGYYYYYGMDVWGQGTTVTVSS VL: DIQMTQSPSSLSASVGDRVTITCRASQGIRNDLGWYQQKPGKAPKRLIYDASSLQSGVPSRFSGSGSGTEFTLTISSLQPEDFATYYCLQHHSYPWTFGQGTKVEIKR : 0.056

I have this binder here, 5H7v7 (antibody, human IgG1, kappa, V domains shown, Engineered variant; also called Ab29; SS-16917) VH: QVQLQESGPGLVKPSETLSLTCTVSGGSISSGGYFWSWIRQPPGKGLEWIGYIYYSGTTYYNPSLKSRVTISIDTSKNQFSLKLSSVTAADTAVYYCARDLFYYDTSGPRGFEPWGQGTLVTVSS VL: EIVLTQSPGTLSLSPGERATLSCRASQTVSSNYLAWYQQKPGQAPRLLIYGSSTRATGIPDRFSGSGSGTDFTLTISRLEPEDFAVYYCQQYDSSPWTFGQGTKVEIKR , and I need its recorded EC50.
0.461
